Data origin, for the record: patent US20210380703A1

Target: human ACVR2A (human, UniProt P27037 20-135, limits assumed); further: test concentration or dose not given here
Sequence (P27037 20-135 limits assumed): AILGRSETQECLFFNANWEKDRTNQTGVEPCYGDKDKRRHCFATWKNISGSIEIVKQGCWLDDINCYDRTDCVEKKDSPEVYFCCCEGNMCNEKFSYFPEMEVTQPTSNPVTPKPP
Test: ELISA
Procedure: The binding of ACVR2A-specific monoclonal antibodies to human ACVR2A, mouse ACVR2A, biotinylated goat anti-human kappa light chain (positive control) and human Fc (negative control) were determined by ELISA.
quantity.name: optical density (OD)
Express it in OD; write the number only.

Before answering, review these 2 worked examples.
• 376_B09 (antibody, V domains shown, VH/VL only) VH: EVQLLESGGGLVQPGGSLRLSCAASGFTFDSYSMNWVRQAPGKGLEWVANINYNSGYKGYADSVKGRFTISRDNSKNTLYLQMNSLRAEDTAVYYCARSANWHDTALDYWGQGTLVTVSS VL: DIQMTQSPSSLSASVGDRVTITCRASQSILTYVNWYQQKPGKAPKLVIYAATSRASGVPSRFSGSGSGTDFTLTISSLQPEDFATYYCQQSYDLPLTFGGGTKVEIK = 3.78
• 366_A03 (antibody, V domains shown, VH/VL only) VH: EVQLLESGGGLVQPGGSLRLSCAASGFTFDSYSMNWVRQAPGKGLEWVAGINYNSGYKGYADSVKGRFTISRDNSKNTLYLQMNSLRAEDTAVYYCARSATWHDTHLDYWGQGTLVTVSS VL: DIQMTQSPSSLSASVGDRVTITCRASQSISSYLNWYQQKPGKAPKLLIYAATSLASGVPSRFSGSGSGTDFTLTISSLQPEDFATYYCQQSYSNPLTFGGGTKVEIK = 1.15

Next binder, optical density to be filled in.
For record 376_F03 (antibody, V domains shown, VH/VL only) VH: EVQLLESGGGLVQPGGSLRLSCAASGFTFDSYGMNWVRQAPGKGLEWVANINYNGGYTGYADSVKGRFTISRDNSKNTLYLQMNSLRAEDTAVYYCARSANWHDTALDYWGQGTLVTVSS VL: DIQMTQSPSSLSASVGDRVTITCRASQSIITYVNWYQQKPGKAPKLVIYATTSLASGVPSRFSGSGSGTDFTLTISSLQPEDFATYYCQQSYSSPLTFGGGTKVEIK the listed optical density is 3.29
